# Test system: HepG2 cells
# assay.remarks: in vitro
# condition.context: human, 24 h
Starred links: 1 amine or outer side, 2 acyl side, 3 side chain; linkers in the order of their positions; H or OH if unused. Positions of bridges follow the written chain, without caps; N, C: chain ends. Non-standard residues stand in square brackets, D forms with d. Residues, ends and D or L forms follow the SMILES beside them. *: point of attachment. Decanoyl(3R-OH) = CCCCCCC[C@@H](O)CC(=O)*; azaDab = NCCN(N[*:1])C(=O)[*:2]; dDab = NCC[C@@H](N)C(=O)O; Dab = NCC[C@H](N)C(=O)O
observable: CC50

CCCCCCC[C@@H](O)CC(=O)N[C@H](CCN)C(=O)N[C@H]1CCNC(=O)[C@H](CC(C)C)NC(=O)[C@H](CCN)NC(=O)N(CCN)NC(=O)[C@H](CC(C)C)NC(=O)[C@@H](Cc2ccccc2)NC(=O)[C@H](CCN)NC1=O [compound 8641] ({Decanoyl(3R-OH)}-[dDab][Dab][Dab][dF]L[azaDab][Dab]L; lactam 2-C) = > 300 µM

====

# Test system: A. baumannii GN_093 PmxR
# condition.context: GN 093 PmxR
Starred links: 1 amine or outer side, 2 acyl side, 3 side chain; linkers in the order of their positions; H or OH if unused. Positions of bridges follow the written chain, without caps; N, C: chain ends. Non-standard residues stand in square brackets, D forms with d. Residues, ends and D or L forms follow the SMILES beside them. *: point of attachment. Decanoyl(3R-OH) = CCCCCCC[C@@H](O)CC(=O)*; azaLeu = CC(C)CN(N[*:1])C(=O)[*:2]; dDab = NCC[C@@H](N)C(=O)O; Dab = NCC[C@H](N)C(=O)O
Property: MIC A. baumannii Cl Ptyela 10073 4512:2, PmxR; scope: individual compounds
observable: MIC A. baumannii Cl Ptyela 10073 4512:2, PmxR (µg/mL)

CCCCCCC[C@@H](O)CC(=O)N[C@H](CCN)C(=O)N[C@H]1CCNC(=O)[C@H](CC(C)C)NC(=O)[C@H](CCN)NC(=O)[C@H](CCN)NC(=O)N(CC(C)C)NC(=O)[C@@H](Cc2ccccc2)NC(=O)[C@H](CCN)NC1=O [compound 8803] ({Decanoyl(3R-OH)}-[dDab][Dab][Dab][dF][azaLeu][Dab][Dab]L; lactam 2-C) = 32
CCCCCCC[C@@H](O)CC(=O)N[C@H](CCN)C(=O)N[C@H]1CCNC(=O)[C@H](CC(C)C)NC(=O)[C@H](CCN)NC(=O)[C@H](CCN)NC(=O)[C@H](CC(C)C)NC(=O)[C@@H](Cc2ccccc2)NC(=O)[C@H](CCN)NC1=O [Octapeptin C4 (631), reference compound] ({Decanoyl(3R-OH)}-[dDab][Dab][Dab][dF]L[Dab][Dab]L; lactam 2-C) = 4

====

Property: CC50 at 24 h; scope: individual compounds
# assay.remarks: in vitro
# condition.context: human
Positions of bridges follow the written chain, without caps; N, C: chain ends. Non-standard residues stand in square brackets, D forms with d. Residues, ends and D or L forms follow the SMILES beside them. *: point of attachment. Isonicotinoyl(2-Ph) = O=C(c1ccnc(-c2ccccc2)c1)*; Decanoyl(3R-OH) = CCCCCCC[C@@H](O)CC(=O)*; Phe(4-NH2) = Nc1ccc(C[C@H](N)C(=O)O)cc1; dDab = NCC[C@@H](N)C(=O)O; Dab = NCC[C@H](N)C(=O)O
observable: CC50 at 24 h

CC(C)C[C@@H]1NC(=O)[C@H](CCN)NC(=O)[C@H](CCN)NC(=O)[C@H](Cc2ccccc2)NC(=O)[C@@H](CC(C)C)NC(=O)[C@H](CCN)NC(=O)[C@@H](NC(=O)[C@@H](CCN)NC(=O)c2ccnc(-c3ccccc3)c2)CCNC1=O [compound 6517] ({Isonicotinoyl(2-Ph)}-[dDab][Dab][Dab][dL]F[Dab][Dab]L; lactam 2-C) = > 300 µM
CCCCCCC[C@@H](O)CC(=O)N[C@H](CCN)C(=O)N[C@H]1CCNC(=O)[C@H]([C@@H](C)O)NC(=O)[C@H](Cc2ccc(N)cc2)NC(=O)[C@H](CCN)NC(=O)[C@H](CC(C)C)NC(=O)[C@@H](Cc2ccccc2)NC(=O)[C@H](CCN)NC1=O [compound 5605] ({Decanoyl(3R-OH)}-[dDab][Dab][Dab][dF]L[Dab][Phe(4-NH2)]T; lactam 2-C) = 115 µM

====

# System: E. coli ATCC 25922
# condition.context: ATCC 25922
Positions of bridges follow the written chain, without caps; N, C: chain ends. Non-standard residues stand in square brackets, D forms with d. Residues, ends and D or L forms follow the SMILES beside them. *: point of attachment. Decanoyl(3R-OH) = CCCCCCC[C@@H](O)CC(=O)*; 2Nal = N[C@@H](Cc1ccc2ccccc2c1)C(=O)O; dIgl = N[C@@H](C(=O)O)C1Cc2ccccc2C1; Igl = N[C@H](C(=O)O)C1Cc2ccccc2C1; dDab = NCC[C@@H](N)C(=O)O; dDap = NC[C@@H](N)C(=O)O; Dab = NCC[C@H](N)C(=O)O
observable: MIC E. coli ATCC 25922 (µg/mL)

CCCCCCC[C@@H](O)CC(=O)N[C@H](CCN)C(=O)N[C@H]1CCNC(=O)[C@H](Cc2c[nH]c3ccccc23)NC(=O)[C@H](CCN)NC(=O)[C@H](CCN)NC(=O)[C@H](CC(C)C)NC(=O)[C@@H](C2Cc3ccccc3C2)NC(=O)[C@H](CCN)NC1=O [compound 8826] ({Decanoyl(3R-OH)}-[dDab][Dab][Dab][dIgl]L[Dab][Dab]W; lactam 2-C) = 8
CCCCCCC[C@@H](O)CC(=O)N[C@H](CCN)C(=O)N[C@H]1CCNC(=O)[C@H](CC(C)C)NC(=O)[C@H](CCN)NC(=O)[C@H](CCN)NC(=O)[C@H](C)NC(=O)[C@@H](Cc2ccccc2)NC(=O)[C@H](CCN)NC1=O [compound 4946] ({Decanoyl(3R-OH)}-[dDab][Dab][Dab][dF]A[Dab][Dab]L; lactam 2-C) = 16
CCCCCCC[C@@H](O)CC(=O)N[C@H](CCCNC(=N)N)C(=O)N[C@H]1CCNC(=O)[C@H](Cc2c[nH]c3ccccc23)NC(=O)[C@H](CCN)NC(=O)[C@H](CCN)NC(=O)[C@H](CC(C)C)NC(=O)[C@@H](Cc2ccccc2)NC(=O)[C@H](CCN)NC1=O [compound 8884] ({Decanoyl(3R-OH)}-[dR][Dab][Dab][dF]L[Dab][Dab]W; lactam 2-C) = 4
CCCCCCC[C@@H](O)CC(=O)N[C@H](CCN)C(=O)N[C@H]1CCNC(=O)N(CC(C)C)NC(=O)[C@H](CCN)NC(=O)[C@H](CCN)NC(=O)[C@H](CC(C)C)NC(=O)[C@@H](Cc2ccccc2)NC(=O)[C@@H](CCN)NC1=O [compound 9416] = 16
CCCCCCC[C@@H](O)CC(=O)N[C@H](CN)C(=O)N[C@H]1CCNC(=O)[C@H](Cc2c[nH]c3ccccc23)NC(=O)[C@H](CCN)NC(=O)[C@H](CCN)NC(=O)[C@H](C2Cc3ccccc3C2)NC(=O)[C@@H](C2Cc3ccccc3C2)NC(=O)[C@H](CCN)NC1=O [compound 8897] ({Decanoyl(3R-OH)}-[dDap][Dab][Dab][dIgl][Igl][Dab][Dab]W; lactam 2-C) = 2
CCCCCCC[C@@H](O)CC(=O)N[C@H](CCN)C(=O)N[C@H]1CCNC(=O)[C@H](Cc2c[nH]c3ccccc23)NC(=O)[C@H](CCN)NC(=O)[C@H](CCN)NC(=O)[C@H](Cc2ccc3ccccc3c2)NC(=O)[C@@H](Cc2ccccc2)NC(=O)[C@H](CCN)NC1=O [compound 8832] ({Decanoyl(3R-OH)}-[dDab][Dab][Dab][dF][2Nal][Dab][Dab]W; lactam 2-C) = 8
CCCCCCC[C@@H](O)CC(=O)N[C@H](CC(N)=O)C(=O)N[C@H]1CCNC(=O)[C@H](CC(C)C)NC(=O)[C@H](CCN)NC(=O)[C@H](CCN)NC(=O)[C@H](Cc2ccccc2)NC(=O)[C@@H](CC(C)C)NC(=O)[C@H](CCN)NC1=O [compound 6432] ({Decanoyl(3R-OH)}-[dN][Dab][Dab][dL]F[Dab][Dab]L; lactam 2-C) = 16
CCCCCCC[C@@H](O)CC(=O)N[C@H](CCN)C(=O)N[C@H]1CCNC(=O)[C@H](Cc2c[nH]cn2)NC(=O)[C@H](CCN)NC(=O)[C@H](CCN)NC(=O)[C@H](CC(C)C)NC(=O)[C@@H](Cc2ccccc2)NC(=O)[C@H](CCN)NC1=O [compound 8911] ({Decanoyl(3R-OH)}-[dDab][Dab][Dab][dF]L[Dab][Dab]H; lactam 2-C) = 8

Origin of values: patent US11279733B2
